system: K-562 leukemia growth, % test/control; assay: Anticancer human tumor K-562 cell line growth inhibition; details: second compound 0.316 µM; first compound 0.0316 µM; stronger effect = lower value; spheroids with HUVEC and MSC;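 note: spheroids exposed to compounds for 7 days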;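 for viability, T/C: 100% = DMSO vehicle wells and lower values mean fewer viable cells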
This listing pairs compounds with measured viability, T/C.
measured-parameter: viability, T/C (%)

compound	reported-result
CC(C)CC(NC(=O)CNC(=O)c1cc(Cl)ccc1Cl)B1OC(=O)CC(CC(=O)O)(C(=O)O)O1 (configuration not stated) + NC1CCC(NC2CC2c2ccccc2)CC1	16.7
O=C(C=Cn1cnc(-c2cc(C(F)(F)F)cc(C(F)(F)F)c2)n1)NNc1cnccn1 + NC1CC1c1ccc(-c2cccc(O)c2)cc1	83.1
Nc1ncn(C2CC(O)C(CO)O2)c(=O)n1 (configuration not stated) + NC1CCC(NC2CC2c2ccccc2)CC1	90.3
CC(C)CC(NC(=O)CNC(=O)c1cc(Cl)ccc1Cl)B1OC(=O)CC(CC(=O)O)(C(=O)O)O1 (configuration not stated) + NC1CC1c1ccc(-c2cccc(O)c2)cc1	10.7
Nc1ncn(C2CC(O)C(CO)O2)c(=O)n1 (configuration not stated) + NC1CC1c1ccc(-c2cccc(O)c2)cc1	97.5
O=C(C=Cn1cnc(-c2cc(C(F)(F)F)cc(C(F)(F)F)c2)n1)NNc1cnccn1 + NC1CCC(NC2CC2c2ccccc2)CC1	69.2
COc1cc(Nc2ncc3c(n2)-c2ccc(Cl)cc2C(c2c(F)cccc2OC)=NC3)ccc1C(=O)O + NC1CCC(NC2CC2c2ccccc2)CC1	22
CC(C)CC(NC(=O)C(Cc1ccccc1)NC(=O)c1cnccn1)B(O)O (configuration not stated) + NC1CCC(NC2CC2c2ccccc2)CC1	0.86
COc1ccc([C@@H](O)c2cc(-c3ncnc4cc(N5CCOCC5)ccc34)c(F)cc2Cl)nn1 + NC1CC1c1ccc(-c2cccc(O)c2)cc1	104
Cn1ncnc1C1c2n[nH]c(=O)c3cc(F)cc(c23)NC1c1ccc(F)cc1 (configuration not stated) + NC1CCC(NC2CC2c2ccccc2)CC1	101
CC1COCCN1c1cc(-c2ccnn2C)c2ccnc(-c3ccn[nH]3)c2n1 (configuration not stated) + NC1CC1c1ccc(-c2cccc(O)c2)cc1	2.23
CC(C)CC(NC(=O)C(Cc1ccccc1)NC(=O)c1cnccn1)B(O)O (configuration not stated) + NC1CC1c1ccc(-c2cccc(O)c2)cc1	0.48
COc1ccc([C@@H](O)c2cc(-c3ncnc4cc(N5CCOCC5)ccc34)c(F)cc2Cl)nn1 + NC1CCC(NC2CC2c2ccccc2)CC1	101
CC[C@@]1(O)C(=O)OCc2c1cc1n(c2=O)Cc2cc3c(CN(C)C)c(O)ccc3nc2-1 + NC1CC1c1ccc(-c2cccc(O)c2)cc1	13.9
O=C(c1cc(Cc2n[nH]c(=O)c3ccccc23)ccc1F)N1CCN(C(=O)C2CC2)CC1 + NC1CCC(NC2CC2c2ccccc2)CC1	101
CC[C@@]1(O)C(=O)OCc2c1cc1n(c2=O)Cc2cc3c(CN(C)C)c(O)ccc3nc2-1 + NC1CCC(NC2CC2c2ccccc2)CC1	7.94
Cn1ncnc1C1c2n[nH]c(=O)c3cc(F)cc(c23)NC1c1ccc(F)cc1 (configuration not stated) + NC1CC1c1ccc(-c2cccc(O)c2)cc1	101
CC1(C)CCC(CN2CCN(c3ccc(C(=O)NS(=O)(=O)c4ccc(NCC5CCOCC5)c([N+](=O)[O-])c4)c(Oc4cnc5[nH]ccc5c4)c3)CC2)=C(c2ccc(Cl)cc2)C1 + NC1CCC(NC2CC2c2ccccc2)CC1	102
CC1COCCN1c1cc(-c2ccnn2C)c2ccnc(-c3ccn[nH]3)c2n1 (configuration not stated) + NC1CCC(NC2CC2c2ccccc2)CC1	12.9
COc1cc(Nc2ncc3c(n2)-c2ccc(Cl)cc2C(c2c(F)cccc2OC)=NC3)ccc1C(=O)O + NC1CC1c1ccc(-c2cccc(O)c2)cc1	27.8
CC1(C)CCC(CN2CCN(c3ccc(C(=O)NS(=O)(=O)c4ccc(NCC5CCOCC5)c([N+](=O)[O-])c4)c(Oc4cnc5[nH]ccc5c4)c3)CC2)=C(c2ccc(Cl)cc2)C1 + NC1CC1c1ccc(-c2cccc(O)c2)cc1	104
CC1COCCN1c1cc(C2(S(C)(=N)=O)CC2)nc(-c2ccnc3[nH]ccc23)n1 (configuration not stated) + NC1CCC(NC2CC2c2ccccc2)CC1	104

----------
system: K-562 leukemia growth, % test/control; assay: Anticancer human tumor K-562 cell line growth inhibition; settings: second compound 1 µM; first compound 0.0316 µM; stronger effect = lower value; spheroids with HUVEC and MSC;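 note: spheroids exposed to compounds for 7 days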;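 for viability, T/C: 100% = DMSO vehicle wells and lower values mean fewer viable cells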
This listing pairs compounds with measured viability, T/C.

compound	viability, T/C
Nc1ncn(C2CC(O)C(CO)O2)c(=O)n1 (centres undefined) + NC1CCC(NC2CC2c2ccccc2)CC1	89.4%
CC(C)CC(NC(=O)C(Cc1ccccc1)NC(=O)c1cnccn1)B(O)O (centres undefined) + NC1CCC(NC2CC2c2ccccc2)CC1	1.68%
COc1ccc([C@@H](O)c2cc(-c3ncnc4cc(N5CCOCC5)ccc34)c(F)cc2Cl)nn1 + NC1CCC(NC2CC2c2ccccc2)CC1	105%
O=C(C=Cn1cnc(-c2cc(C(F)(F)F)cc(C(F)(F)F)c2)n1)NNc1cnccn1 + NC1CC1c1ccc(-c2cccc(O)c2)cc1	80.7%
CC1(C)CCC(CN2CCN(c3ccc(C(=O)NS(=O)(=O)c4ccc(NCC5CCOCC5)c([N+](=O)[O-])c4)c(Oc4cnc5[nH]ccc5c4)c3)CC2)=C(c2ccc(Cl)cc2)C1 + NC1CC1c1ccc(-c2cccc(O)c2)cc1	102%
CC[C@@]1(O)C(=O)OCc2c1cc1n(c2=O)Cc2cc3c(CN(C)C)c(O)ccc3nc2-1 + NC1CC1c1ccc(-c2cccc(O)c2)cc1	12%
O=C(C=Cn1cnc(-c2cc(C(F)(F)F)cc(C(F)(F)F)c2)n1)NNc1cnccn1 + NC1CCC(NC2CC2c2ccccc2)CC1	70%
CC1COCCN1c1cc(-c2ccnn2C)c2ccnc(-c3ccn[nH]3)c2n1 (centres undefined) + NC1CCC(NC2CC2c2ccccc2)CC1	9.5%
O=C(c1cc(Cc2n[nH]c(=O)c3ccccc23)ccc1F)N1CCN(C(=O)C2CC2)CC1 + NC1CCC(NC2CC2c2ccccc2)CC1	99.4%
COc1cc(Nc2ncc3c(n2)-c2ccc(Cl)cc2C(c2c(F)cccc2OC)=NC3)ccc1C(=O)O + NC1CCC(NC2CC2c2ccccc2)CC1	23.4%
Cn1ncnc1C1c2n[nH]c(=O)c3cc(F)cc(c23)NC1c1ccc(F)cc1 (centres undefined) + NC1CCC(NC2CC2c2ccccc2)CC1	102%
CC[C@@]1(O)C(=O)OCc2c1cc1n(c2=O)Cc2cc3c(CN(C)C)c(O)ccc3nc2-1 + NC1CCC(NC2CC2c2ccccc2)CC1	6.59%
CC1COCCN1c1cc(-c2ccnn2C)c2ccnc(-c3ccn[nH]3)c2n1 (centres undefined) + NC1CC1c1ccc(-c2cccc(O)c2)cc1	2.17%
CC(C)CC(NC(=O)CNC(=O)c1cc(Cl)ccc1Cl)B1OC(=O)CC(CC(=O)O)(C(=O)O)O1 (centres undefined) + NC1CCC(NC2CC2c2ccccc2)CC1	12.8%

----------
tested on: K-562 leukemia growth, % test/control; experiment: Anticancer human tumor K-562 cell line growth inhibition; settings: curve of first compound; second compound 3.16 µM; spheroids with HUVEC and MSC;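 note: spheroids exposed to compounds for 7 days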
measured-parameter: IC50 (nM)

compound	result-units	comparison-sign	reported-result
CCN(c1cc(-c2ccc(CN3CCOCC3)cc2)cc(C(=O)NCc2c(C)cc(C)[nH]c2=O)c1C)C1CCOCC1 + NC1CCC(NC2CC2c2ccccc2)CC1	nM	>	3000
O=C(c1cc(Cc2n[nH]c(=O)c3ccccc23)ccc1F)N1CCN(C(=O)C2CC2)CC1 + NC1CCC(NC2CC2c2ccccc2)CC1	nM	>	10000
CC1(C)CCC(CN2CCN(c3ccc(C(=O)NS(=O)(=O)c4ccc(NCC5CCOCC5)c([N+](=O)[O-])c4)c(Oc4cnc5[nH]ccc5c4)c3)CC2)=C(c2ccc(Cl)cc2)C1 + NC1CC1c1ccc(-c2cccc(O)c2)cc1	nM	=	4470
CC[C@@]1(O)C(=O)OCc2c1cc1n(c2=O)Cc2cc3c(CN(C)C)c(O)ccc3nc2-1 + NC1CCC(NC2CC2c2ccccc2)CC1	nM	=	1.77
Cn1ncnc1C1c2n[nH]c(=O)c3cc(F)cc(c23)NC1c1ccc(F)cc1 (stereo not drawn) + NC1CC1c1ccc(-c2cccc(O)c2)cc1	nM	>	100
CC1COCCN1c1cc(-c2ccnn2C)c2ccnc(-c3ccn[nH]3)c2n1 (stereo not drawn) + NC1CCC(NC2CC2c2ccccc2)CC1	nM	=	10.1
O=C(c1cc(Cc2n[nH]c(=O)c3ccccc23)ccc1F)N1CCN(C(=O)C2CC2)CC1 + NC1CC1c1ccc(-c2cccc(O)c2)cc1	nM	>	10000
CC[C@@]1(O)C(=O)OCc2c1cc1n(c2=O)Cc2cc3c(CN(C)C)c(O)ccc3nc2-1 + NC1CC1c1ccc(-c2cccc(O)c2)cc1	nM	=	4.98
CC1COCCN1c1cc(C2(S(C)(=N)=O)CC2)nc(-c2ccnc3[nH]ccc23)n1 (stereo not drawn) + NC1CC1c1ccc(-c2cccc(O)c2)cc1	nM	=	1490
CC(C)CC(NC(=O)CNC(=O)c1cc(Cl)ccc1Cl)B1OC(=O)CC(CC(=O)O)(C(=O)O)O1 (stereo not drawn) + NC1CCC(NC2CC2c2ccccc2)CC1	nM	=	13.4
CC1(C)CCC(CN2CCN(c3ccc(C(=O)NS(=O)(=O)c4ccc(NCC5CCOCC5)c([N+](=O)[O-])c4)c(Oc4cnc5[nH]ccc5c4)c3)CC2)=C(c2ccc(Cl)cc2)C1 + NC1CCC(NC2CC2c2ccccc2)CC1	nM	=	6940
CC(C)CC(NC(=O)CNC(=O)c1cc(Cl)ccc1Cl)B1OC(=O)CC(CC(=O)O)(C(=O)O)O1 (stereo not drawn) + NC1CC1c1ccc(-c2cccc(O)c2)cc1	nM	=	7.83
CC1COCCN1c1cc(C2(S(C)(=N)=O)CC2)nc(-c2ccnc3[nH]ccc23)n1 (stereo not drawn) + NC1CCC(NC2CC2c2ccccc2)CC1	nM	=	602
Nc1ccccc1NC(=O)c1ccc(CNC(=O)OCc2cccnc2)cc1 + NC1CCC(NC2CC2c2ccccc2)CC1	nM	=	225
CC1COCCN1c1cc(-c2ccnn2C)c2ccnc(-c3ccn[nH]3)c2n1 (stereo not drawn) + NC1CC1c1ccc(-c2cccc(O)c2)cc1	nM	<	3.16
Nc1ncn(C2CC(O)C(CO)O2)c(=O)n1 (stereo not drawn) + NC1CCC(NC2CC2c2ccccc2)CC1	nM	=	396
COc1cc(C2c3cc4c(cc3C(OC3OC5COC(C)OC5C(O)C3O)C3COC(=O)C23)OCO4)cc(OC)c1O (stereo not drawn) + NC1CC1c1ccc(-c2cccc(O)c2)cc1	nM	=	21.1
COc1ccc([C@@H](O)c2cc(-c3ncnc4cc(N5CCOCC5)ccc34)c(F)cc2Cl)nn1 + NC1CCC(NC2CC2c2ccccc2)CC1	nM	=	9830
O=C(C=Cn1cnc(-c2cc(C(F)(F)F)cc(C(F)(F)F)c2)n1)NNc1cnccn1 + NC1CCC(NC2CC2c2ccccc2)CC1	nM	=	60.6
CC(C)c1c(-c2ccccc2)nc2c(C#N)c[nH]n2c1=O + NC1CC1c1ccc(-c2cccc(O)c2)cc1	nM	>	10000
COc1cc(Nc2ncc3c(n2)-c2ccc(Cl)cc2C(c2c(F)cccc2OC)=NC3)ccc1C(=O)O + NC1CCC(NC2CC2c2ccccc2)CC1	nM	=	3.29
O=C(C=Cc1cccc(S(=O)(=O)Nc2ccccc2)c1)NO + NC1CCC(NC2CC2c2ccccc2)CC1	nM	=	325
COc1ccc([C@@H](O)c2cc(-c3ncnc4cc(N5CCOCC5)ccc34)c(F)cc2Cl)nn1 + NC1CC1c1ccc(-c2cccc(O)c2)cc1	nM	=	4840
